Recorded values, source patent US6861409B2.

- Test system: plasma GH concentrations
- ASSAY_OVERVIEW: Growth hormone releasing activity in the infant rat (plasma GH by RIA)
- Assay type: in vivo, Sprague Dawley rats
- CONDITIONS_USED: Table 5 test series; male 10-day-old rats; 300 μg/kg subcutaneously; plasma 15 min later
Square brackets hold non-standard residues; d marks the D form. Peptide text beside a SMILES is read from it. dTrp(2-Me) = Cc1[nH]c2ccccc2c1C[C@@H](N)C(=O)O
EXPERIMENTAL_READOUT: GH
Please give the number followed by its unit.

q: May I ask what GH has been recorded for CC(C)(N)C(=O)NC(Cc1cccc2ccccc12)C(=O)NC(Cc1cccc2ccccc12)NC=O (stereo not drawn) ?
a: 25.05 ± 06.00 ng/mL

q: May I ask what GH has been recorded for CC(C)(N)C(=O)N[C@H](Cc1c[nH]c2ccccc12)C(=O)NC(Cc1cccc2ccccc12)NC=O (stereo partly drawn) ?
a: 8.26 ± 01.09 ng/mL

q: May I ask what GH has been recorded for CC(C)(N)C(=O)NC(Cc1c[nH]c2ccccc12)C(=O)NC(Cc1ccc2ccccc2c1)NC=O (stereo not drawn) ?
a: 9.04 ± 04.03 ng/mL

q: May I ask what GH has been recorded for CC(C)(N)C(=O)NC(Cc1ccc2ccccc2c1)C(=O)NC(Cc1ccc2ccccc2c1)NC=O (stereo not drawn) ?
a: 37.33 ± 19.74 ng/mL

q: May I ask what GH has been recorded for Cc1[nH]c2ccccc2c1C[C@@H](NC(=O)[C@@H](N)Cc1cnc[nH]1)C(=O)N[C@@H](C)C(=O)N[C@@H](Cc1c[nH]c2ccccc12)C(=O)N[C@H](Cc1ccccc1)C(=O)N[C@@H](CCCCN)C(N)=O [HEXARELIN, Tyr-Ala-His-D-Mrp-Ala-Trp-D-Phe-Lys-NH2, reference compound] (H-H[dTrp(2-Me)]AW[dF]K-NH2) ?
a: 276.01 ± 23.5 ng/mL

q: May I ask what GH has been recorded for CC(C)(N)C(=O)NC(Cc1ccc2ccccc2c1)C(=O)NC(Cc1c[nH]c2ccccc12)NC=O (stereo not drawn) ?
a: 13.91 ± 03.87 ng/mL

* * *

- System: plasma GH concentrations
- ASSAY_OVERVIEW: Growth hormone releasing activity in the infant rat (plasma GH by RIA)
- Type: in vivo, Sprague Dawley rats
- CONDITIONS_USED: Table 8 test series; male 10-day-old rats; 300 μg/kg subcutaneously; plasma 15 min later
Square brackets hold non-standard residues; d marks the D form. Peptide text beside a SMILES is read from it. dTrp(2-Me) = Cc1[nH]c2ccccc2c1C[C@@H](N)C(=O)O
EXPERIMENTAL_READOUT: GH (ng/mL)
Write the number in ng/mL without appending the unit.

compound="CC(C)(N)C(=O)NC(C)(Cc1c[nH]c2ccccc12)C(=O)NC(Cc1c[nH]c2ccccc12)NC=O [Example 60, H-Aib-(R)—Me-Trp-(D)-gTrp-formyl]" experimental_readout=GH units_of_measure=ng/mL quantitative_readout=21.02
compound="Cc1[nH]c2ccccc2c1C[C@@H](NC(=O)[C@@H](N)Cc1cnc[nH]1)C(=O)N[C@@H](C)C(=O)N[C@@H](Cc1c[nH]c2ccccc12)C(=O)N[C@H](Cc1ccccc1)C(=O)N[C@@H](CCCCN)C(N)=O [HEXARELIN, Tyr-Ala-His-D-Mrp-Ala-Trp-D-Phe-Lys-NH2, reference compound] (H-H[dTrp(2-Me)]AW[dF]K-NH2)" experimental_readout=GH units_of_measure=ng/mL quantitative_readout=172.5
compound="CNC(C)(C)C(=O)NC(Cc1c[nH]c2ccccc12)C(=O)NC(C)(Cc1c[nH]c2ccccc12)NC(C)=O [Example 62, H-Me-Aib-(D)-Trp-(R)-Me-gTrp-acetyl]" experimental_readout=GH units_of_measure=ng/mL quantitative_readout=171.78

Moving on to the next compound.
q: May I ask what GH has been recorded for CC(Cc1c[nH]c2ccccc12)(NC=O)NC(=O)C(Cc1c[nH]c2ccccc12)NC(=O)C(C)(C)N [Example 61, H-Aib-(D)-Trp-(R)-Me-gTrp-formyl] ?
a: 152.28
